# Tested on: Saccharomyces cerevisiae
# method_description: protein stability index of tFT-peptide fusion (C-terminal peptide) (PSI (0-1 scale)); higher = more stable (slower turnover)
# assay_conditions: genetic background: das1 deletion; temperature: 30 C
measurement_name: protein stability index
Enter the number alone.

Worked cases, protein stability index given:
PDYKSNTQILVL [YOL155W-A C-terminal 12 aa]: 0.564
CNNVLYIRELPN [SMX3 C-terminal 12 aa]: 0.689
LPNVPTVAYVII [YNL319W C-terminal 12 aa]: 0.633

Qu. What is its protein stability index for Saccharomyces cerevisiae? Entry: KKRDPITGEVFE [ERG5 C-terminal 12 aa]
Ans. 0.685

Qu. GET /values?readout=protein stability index&system=Saccharomyces cerevisiae&item= KHKNILLFNNNT [YAL068W-A C-terminal 12 aa]
Ans. 0.699

Qu. What measured protein stability index is associated with IQAMLKSLDSLK [SNL1 C-terminal 12 aa] on Saccharomyces cerevisiae?
Ans. 0.691

* * *

# Tested on: Saccharomyces cerevisiae
# method_description: protein stability index of tFT-peptide fusion (C-terminal peptide) (PSI (0-1 scale)); higher = more stable (slower turnover)
# assay_conditions: genetic background: wild type; temperature: 30 C
Outcome label depends on protein stability index relative to 0.7: at/above gives Yes, below gives No.

LLRLDGGAGRSV: No
HLLMLAMVGFQC: No
GWPVSICGSTQN: Yes
SLRFLFPSSRFF: No
VLWIVDLFACEG: No

Qu. In plain terms: is recorded protein stability index at least 0.7 for `LSVPPFSFTLSL` ?
Ans. Yes

Qu. Is the recorded value of protein stability index equal to or greater than 0.7 for this sequence? `WSQGAIDRLDLS`
Ans. No

Qu. Determine whether measured protein stability index meets or exceeds 0.7 for `WFQRGKIPIHKV`
Ans. No

Qu. Check this sequence for protein stability index at or above 0.7: `IGWKLNRIQKNI`
Ans. No

Qu. Decide: protein stability index of `LPFFSFSPWWFY` >= 0.7?
Ans. No

* * *

Each item that follows carries a reported protein stability index.
# Tested on: Saccharomyces cerevisiae
# method_description: protein stability index of tFT-peptide fusion (C-terminal peptide) (PSI (0-1 scale)); higher = more stable (slower turnover)
# assay_conditions: genetic background: wild type; temperature: 37 C
Respond using a number only.

FCGLLGVCLVMG: 0.354
GPFGVGALVCCM: 0.484
GELVLVMYGIWV: 0.458
TPYIFVLACLHV: 0.461

Qu. State its protein stability index on Saccharomyces cerevisiae: `YLVFSLCSYRFL`
Ans. 0.549

Qu. Hi! What's the reported protein stability index for `VVRMRPRLFSLY` on Saccharomyces cerevisiae?
Ans. 0.354

Qu. Recorded protein stability index for `WGEAGRPAGRGA` with Saccharomyces cerevisiae, please?
Ans. 0.73

Qu. Field: protein stability index (Saccharomyces cerevisiae). Entry: `IVGVLAVLVRPV`
Ans. 0.51

* * *

# Tested on: Saccharomyces cerevisiae
# method_description: protein stability index of tFT-peptide fusion (C-terminal peptide) (PSI (0-1 scale)); higher = more stable (slower turnover)
# assay_conditions: genetic background: cdc34-1; temperature: 37 C
Kindly return class 1 if reported protein stability index is no lower than 0.3; return class 0 if it is lower.

Worked examples, 6 sequences total:
LLRLCGFPLGVG: class 1
GTRREFVILYLF: class 1
SGWGCRMVVCAG: class 0
SVYLYFQVVAYG: class 0
TALSRLFECFLS: class 1
FLTLQSPIQYIV: class 1

Qu. Tell me whether protein stability index is at least 0.3 here: `IVCYFFAFSFMW`
Ans. class 0

Qu. State whether the measured protein stability index reaches 0.3, counting equality as reaching it, for `LSVVVLVLCVLL`
Ans. class 0

Qu. I'd appreciate it if you could say whether `VLSCIPRLAIAA` has protein stability index at least equal to 0.3.
Ans. class 1

Qu. For this sequence, is measured protein stability index 0.3 or higher? `VFVGGVSVLILF`
Ans. class 1

* * *

# System: Saccharomyces cerevisiae
# method_description: protein stability index of tFT-peptide fusion in deletion strain of DAS1 (PSI (0-1 scale)); higher = more stable (slower turnover)
Below: a set of entries, each annotated with reported protein stability index.

Qu. # input sequence: `VLIQPLPVQFLN` ; wanted: its protein stability index
Ans. 0.603

* * *

# Test system: Saccharomyces cerevisiae
# method_description: protein stability index of tFT-peptide fusion (C-terminal peptide) (PSI (0-1 scale)); higher = more stable (slower turnover)
# assay_conditions: genetic background: das1 deletion; temperature: 30 C
Listing: protein stability index of selected sequences
Quick one: just the number, no unit, thanks!

Field: example entries. Status: answers known.
RYFCHLFRCSII [YDL022C-A C-terminal 12 aa]: 0.722
DNLKYSLDCDFS [BGL2 C-terminal 12 aa]: 0.709
SIIFLLLSYLLF [SAG1 C-terminal 12 aa]: 0.392

Qu. protein stability index lookup needed for YSELCIIVGTYY [YDR003W-A C-terminal 12 aa] , thanks.
Ans. 0.431

Qu. Which value of protein stability index has been reported for FVAYTTLTFKKT [YMR001C-A C-terminal 12 aa] in the records?
Ans. 0.665

Qu. Reported protein stability index for KLENESLPNLSG [TRI1 C-terminal 12 aa] : what is it?
Ans. 0.691

Qu. Requested read-out: protein stability index. Entry: SIINPSSNGCNK [YNL235C C-terminal 12 aa]
Ans. 0.702

Qu. // lookup protein stability index for LDKVGKKKGGKK [LRP1 C-terminal 12 aa]
Ans. 0.701

Qu. Item under review: PLLLVSHLNFAV [YIR020C-B C-terminal 12 aa] . Reported protein stability index?
Ans. 0.673

Qu. Need protein stability index of LSKRRTRLINFN [PXL1 C-terminal 12 aa] , thanks.
Ans. 0.727

* * *

# System: Saccharomyces cerevisiae
# method_description: protein stability index of tFT-peptide fusion (C-terminal peptide) (PSI (0-1 scale)); higher = more stable (slower turnover)
# assay_conditions: genetic background: wild type; temperature: 30 C
measurement_name: protein stability index
Quick one: just the number, no unit, thanks!

PSRDPPAGPRAR: 0.684
GGLVGSSVWGWG: 0.703
SSLERVHVCPLE: 0.64
KKKSKKKNKKKE: 0.766

Qu. Look up protein stability index: `DQSYPTPPSRID`
Ans. 0.721

Qu. Name the recorded protein stability index for `RGVGGRGIGFPR` .
Ans. 0.683

Qu. Would you mind telling me what protein stability index value was observed for `PDPPTQPTRRSR` ?
Ans. 0.686

Qu. Recorded protein stability index for `RSKWEKLDKIVS` , please?
Ans. 0.455

Qu. Consider the sequence shown here: `CKKGVEIIEREK` What is its recorded protein stability index?
Ans. 0.632

Qu. # get_value(readout='protein stability index', item= `GEVGTVEGGATG` )
Ans. 0.696

* * *

protein stability index listing for selected sequences.
# Test system: Saccharomyces cerevisiae
# method_description: protein stability index of tFT-peptide fusion (C-terminal peptide) (PSI (0-1 scale)); higher = more stable (slower turnover)
# assay_conditions: genetic background: cdc34-1; temperature: 37 C
Write the value as a bare number.

Recorded protein stability index, per entry:
LQVPTLRLFVFF: 0.584
FGSFVVWGVWWG: 0.458
SGFLRFRGLVCY: 0.396
VSSSFSVLVLLF: 0.448
RRRRGGQSPALR: 0.651
LPPPTPRSVLLN: 0.644
YRKKIKNIWLRW: 0.442
CWFGLVSLFWVV: 0.49
WVFMVILLVFLV: 0.216
GVWLRAVRGFGV: 0.706

Qu. Please give the measured protein stability index for this sequence: `FKVTWGLFYGSV`
Ans. 0.551

Qu. Any idea what protein stability index was measured for `SSVGLFVLLCLV` ?
Ans. 0.31

Qu. Quick one: protein stability index for `FSRPTYYFIRHS` ?
Ans. 0.629

Qu. What value of measured protein stability index is listed for `RRVFPLIIVLLF` ?
Ans. 0.115

Qu. Query: protein stability index; subject: `FFVFLVLFCLWV`
Ans. 0.278

Qu. Data request, read-out protein stability index, for `TCGAKWIFSHIC`
Ans. 0.6

Qu. May I ask what protein stability index has been recorded for `ALFLYNCVVVTD` ?
Ans. 0.0493

Qu. Which value of protein stability index has been reported for `STVGAWGRVGEG` in the records?
Ans. 0.435

Qu. What does the data say about its protein stability index? Entry: `FSLGGVPYVFFV`
Ans. 0.628

* * *

# Tested on: Saccharomyces cerevisiae
# method_description: protein stability index of tFT-peptide fusion (C-terminal peptide) (PSI (0-1 scale)); higher = more stable (slower turnover)
# assay_conditions: genetic background: das1 deletion; temperature: 30 C
Measured protein stability index accompanies every entry in the list below.
Answer using only a numeral; do not append any unit.

Below are worked cases with known answers.
AAVKLSQAKSKL [FOX2 C-terminal 12 aa]: 0.823
KFDKALYKKTTG [YMR206W C-terminal 12 aa]: 0.712
LTINDLDVTFVI [YCR041W C-terminal 12 aa]: 0.721
VWNTFYKLGKRV [TMT1 C-terminal 12 aa]: 0.705
LDKELTDGCKQQ [PEX19 C-terminal 12 aa]: 0.703
WKKFLKFSKGSD [HXT17 C-terminal 12 aa]: 0.696
SDIFSFLDETYE [PHO92 C-terminal 12 aa]: 0.728
RQEYKFKKSLLT [YKL131W C-terminal 12 aa]: 0.679

Qu. Entry LTARRKNRQQWE [COX23 C-terminal 12 aa] : reported protein stability index = ?
Ans. 0.704

Qu. // returns reported protein stability index for input EQLEEEFVRQEH [OSW7 C-terminal 12 aa]
Ans. 0.732

Qu. Consider the sequence KTYLNFADNGQI [ELM1 C-terminal 12 aa] and give its measured protein stability index.
Ans. 0.675
